For each of the compounds below, state its pA10.
target: Adrenergic receptor alpha-1 (Rattus norvegicus) (UniProt P15823+P23944+P43140); test: Tested for Alpha adrenergic receptor antagonistic activity on isolated rat vas deferens; format: functional, tissue-based
API doc: respond with a numeric literal and nothing else, no unit.

Reported pA10 ( COc1ccc(OC)c(C2CNCCO2)c1 (stereo unspecified) ) = 2.95

Reported pA10 ( COc1ccc(OC)c(C(O)CNC(C)C)c1 (stereo unspecified) ) = 2.48

Reported pA10 ( COc1ccc(OC)c(C(O)CN)c1 (stereo unspecified) ) = 3.3

Reported pA10 ( COc1ccc(OC)c(C2CN(C(C)C)CCO2)c1 (stereo unspecified) ) = 2.95

Reported pA10 ( COc1ccc(OC)c(C2CN(C)CCO2)c1 (stereo unspecified) ) = 2.85

Reported pA10 ( COc1ccc(OC)c(C2OCCNC2C)c1 (stereo unspecified) ) = 3.2
